- Procedure Summary: method code SF-HPLC, from DOI: 10.1021/jm00047a008, PMID: 7932579
- Conditions Used: pH 5.0

{"columns": ["Smiles Notation", "logD"],
 "data": [
  ["Cc1ccc2c(c1)c(C)c1c3ccccc3nc-1n2C", 2.04]
]}

----------
- Procedure Summary: method code SF-HPLC, from DOI: 10.1021/jm00047a008, PMID: 7932579
- Conditions Used: pH 9.0
Measured logD, listed per entry.

{"columns": ["Smiles Notation", "logD"],
 "data": [
  ["Cc1ccc2nc3[nH]c4ccc(C)cc4c3c(C)c2c1", 2.58],
  ["Cc1c2c3ccccc3nc-2n(C)c2c(C)cccc12", 2.46],
  ["c1ccc2nc3[nH]c4ccccc4c3cc2c1", 2.44],
  ["Cn1c2nc3ccccc3c-2cc2ccccc21", 3.04],
  ["Cc1c2c3ccccc3nc-2n(C)c2ccccc12", 2.58],
  ["Cc1c2ccccc2nc2[nH]c3ccccc3c12", 2.69],
  ["Cc1ccc2nc3n(C)c4ccc(C)cc4c(C)c-3c2c1", 2.42],
  ["Cc1cccc2c(C)c3c(nc12)[nH]c1ccccc13", 2.92]
]}
